# system: human MOR (Homo sapiens, UniProt P35372)
# Sequence (P35372 whole entry): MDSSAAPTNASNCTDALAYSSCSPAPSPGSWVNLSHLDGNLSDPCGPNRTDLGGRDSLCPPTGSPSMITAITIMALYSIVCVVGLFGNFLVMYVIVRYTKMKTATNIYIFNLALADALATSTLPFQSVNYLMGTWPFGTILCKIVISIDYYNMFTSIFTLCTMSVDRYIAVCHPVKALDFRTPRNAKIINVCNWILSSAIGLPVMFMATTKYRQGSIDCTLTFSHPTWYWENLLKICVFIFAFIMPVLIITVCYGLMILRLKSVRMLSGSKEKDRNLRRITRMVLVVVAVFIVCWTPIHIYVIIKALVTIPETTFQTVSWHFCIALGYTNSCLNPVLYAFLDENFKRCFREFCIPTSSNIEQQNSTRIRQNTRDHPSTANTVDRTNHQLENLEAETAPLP
# measurement.description: biochemical
measured.endpoint: EC50 (nM)

compound | system | value.reported
COc1cc2c(cc1OC)C1C(C)c3ccc(OC)c(OC)c3CN1CC2 (centres unmarked) | human MOR (Homo sapiens, UniProt P35372) | 1500
COc1cc2c3c(c1O)-c1c(ccc(OC)c1OC)C[C@@H]3N(C)CC2 | human MOR (Homo sapiens, UniProt P35372) | 510

----------
For reference, Ki measured on UniProt P35372:

molecule | system | Ki, µM
COc1cc2c3c(c1O)-c1c(ccc(OC)c1OC)C[C@@H]3N(C)CC2 [Corydine (1), corydine] | UniProt P35372 | 2.82
COc1cc2c(cc1OC)C1C(C)c3ccc(OC)c(OC)c3CN1CC2 (centres unmarked) [Corydaline (2), corydaline] | UniProt P35372 | 1.23
